test: yeast display, Sf9 membrane polyspecificity reagent, FACS + sequencing; frameworks hold sequencing errors
quantity_name: polyreactivity (PSR sort gate)

Please review the following examples before continuing.
QDQLVESGGGLVQAGGRLRLSCAASGLMFYYYAMGWYIQAPGKEREFVAAISRSGGITRYADSVKGRFTISRDNAKNTVYLQMNRLKPEDTAVYYCAAAVGSVRYDYWGQGTQVTVSS
high polyreactivity
QVQLVESGGGLVQAGGSLRLSCAPSGRISGWYAMGWYRQAPGKQRELVASISSSGGSTYYADSVKGRFTISRDNAKNSVYLQMNSLKPEDTAVYYCAVRRYNWSFYRGYDYWGQGTQVTVSS
high polyreactivity
QVQLVESGGGLVLAGGSLRLSCAASGGTFARYAMGWYRQAPGKERELVAAISRGGSTNYADSVKGRFTISRDNAKNTVYLQMNSLKPEDTAVYYCAAGSRRAAWYDYSYPYGYWGQGTQVTVSS
high polyreactivity
QVQLVEAGGGFYQPGGSLRLSCAASGRTFSYYASGWYRQAPGKERELVAAITDSGDSTYYADSVKGRFTISRDNANNTVYLQMKSLKPEDTAVYDCAATTYSWYDYWGQGTQVTVSS
high polyreactivity

polyreactivity (PSR sort gate) for `QVQLVESGGGLVQAGGSLRLSCAAYGSTFSWYTMGWYRQAPGKERELVAAISWSGGRTYYADSVKGRFTISRDNAKNTVYLQMNSLKPEDTAVYYCAAYDYRYSLGDYQFYYWGQGTQVTVSS` is low polyreactivity

Short answer for `QVQLVESGGGLVQAGGSLRLSCAASGSTFILNAMGSYRQAPGKERELVAAISLSGGSTYYADSVKGRFTISRDNAKNTVYLQMNSQKPEDTAVYYCAAEQWYDNYLEYDYWGQGTQVTLSS` : polyreactivity (PSR sort gate) was high polyreactivity

---

experiment: yeast display, Sf9 membrane polyspecificity reagent, FACS + sequencing; frameworks hold sequencing errors
quantity_name: polyreactivity (PSR sort gate)

QVQLVESGGGLVQAGGSLRLSCAASGFTFGRYAMGWYRQAPGKERELLAGITWSGGSTSYADSVKGRFTISRDNAKNTVYFQMNSLKPEDTAVYYCATRARYTRVQGRRYAYDYWGQGTQVTVSS
high polyreactivity
QVQLVESGGGLVQAGGSLRLSCAASGFIFTFYAMGWYRQAPGKEREFVASIDWGDGSTYYADSVKGRFTISRDNAKNTVYLQMNSLKPEDTAVYYCAHDYDGYVWDTEYDYWGQGTQVTVSS
low polyreactivity
QVQLQESGGGLVQAGGSLCMSCAASGSISDYIFMGWYRQAPGKEREFVAGIGIGGNTNYADSVKGRFTISRDNAKNTVYLQMNSLKPEDTAVYYCAANATYTDYYAYWGQGTQVTVSS
low polyreactivity
HVQHVESGGGLVQAGGSLRLSCADSGNTFSDNAMGLYRQAPGKVRELVAAISTSGGSTYYADSVKGRFTISRDNAKNTVYLQMNSLNPEDTADYYFAAQFTVLWYEYYYWVQGTQVTVSS
high polyreactivity

Reported polyreactivity (PSR sort gate) ( `QVQLVESGGGLVQAGGSLRLSCAASGSTFGGYPMGRYRQAPGKERELGAAITWSGSSTTYADSVKGRFTISRDNAKKTVYLQMNSLKPEETAVYYCAAEAQDSTYPQYDYWGQGTLVTVSS` ) = low polyreactivity

---

test: yeast display, Sf9 membrane polyspecificity reagent, FACS + sequencing; frameworks hold sequencing errors
quantity_name: polyreactivity (PSR sort gate)

QVQLVESGGGLVQAGGSLRLSCAASGGIAGNTMGWYRQAPGKERELVAAITRSGGRTYYADSVKGRFTISRDNAKNTVYLQMNSLKPEDTAVYYCAVTGLVRRRYGYWGQGTQVTVSS
high polyreactivity
QVQLVESGGGLVQAGGSLRLSCAASGNIFIKNAMGWYRQAPGKERELVAAISFSGGSTYYADSVKGRFTISRDNAKNTVYLQMNSLKPEDTAVYYCNAVRRQARQYDYWGQGTQVTVSS
high polyreactivity
QVQLVESGGGLVQAGGSLRLSCAASGRTFFVYAMGWYRQAPGKERELVASIRWRGSTYYADSVKGRFTISRDNAKNTVYLKMNSLKPEDTAVYYCAARYPYELGFDYWGQGTQVTVSS
low polyreactivity
QVQLVESGGGLVQAGGSLRLSCAASGRIFTYYAMGWYRQAPGKERELVAGISGSGTSTYYADSVKGRFTISRDNAKNTVYLQMNSLKPEDTAVYYCAAIRRQNGLWDYYYWGQGTQVTVSS
low polyreactivity

Consider the record given below.
Sample `QVQLQECGGGLVQEGGSLRLSCAASGTYSNSVKWLYCQAPGKEREFVATIGVGGSTNYADSVKGRFTISRDIAKNSVYLQMNSLKPDDTAVYHCSAYGAASNFHYYRGQGTQVTVSS` ; polyreactivity (PSR sort gate) observed: low polyreactivity

---

assay: yeast display, Sf9 membrane polyspecificity reagent, FACS + sequencing; frameworks hold sequencing errors
quantity_name: polyreactivity (PSR sort gate)

Would you please look over these solved cases?
QVQLVESGGGLVQAGGSLRLSCDASGRIFYNYAMGWYRQEPGKERELVAAISSSGGRTYYADSVKGRFTISRDKAKNTVYLQMNSLKPEDTAVYYCAADFHDASRPYGSWGQGTQVTVSS
low polyreactivity
QVQLVESGGGLVQAGGSLRLSSSASGRISGRNAMGWYRQAPGKERELVAVITRGDTNYADSVKGRFTISRDNAKNTVYLQMNSLKPEDTAVYYCAKEPLASGWGYDYWGQGTQVTVSS
high polyreactivity
QVQLVESGGGLVQAGGSLRLSCAASGRIFGFYAMGWYRQAPGKERELVARITLSGGRTYYADSVKGRFTISRDNAKNTVYLQMNSLKPEDTEVYYCAADSIGRLWGYGYWGQGTQVTVSS
high polyreactivity
QDQLVESAGGLVQAGGSLRLSCAASGRTFYFYTMGWYRQAPGKESELVATAITSGGSTNYADSVKGRFTISRDNAKNTVYLQMNSLKPEDTAVYYCAAVPTEFGNRLEYDYWGQGTQVTVSS
low polyreactivity
QVQLVESGGGLVQAGCRLRLSCAASGRTFFPYAMGWYRQAPGKERELVAAITTGDITNYADSVKGRFTISRDNAKNTVYLQMNSLKPEDTAVYYCAARGYASWSYGGYPLKLDYWGQGTQVTVSS
low polyreactivity
QVQLVESGGGLVQAGGSLLLSCAASGLIFDPYAMGWYRQAPGKERELVADISSGGSTNYADSVKGRFTISRDNAKNTVYLQMNSLKPEDTAVYYCNKTIILDGYYFSLTLYDSWGQGTQVTVSS
low polyreactivity

Looking up `LVQLVESGGGLVQAGGSLRLSCAASGFTFGRNAMGWYRQSPGKEREFVADISGSVGSTYYADSVKGRFTISRDNAKNSVYLQMNRLIPEDTAVYYCAADTLYPRWEFDYWGQGTQVTVSS` , I found its polyreactivity (PSR sort gate) recorded as high polyreactivity

According to the records, this sequence `QVQLVESGGGLVQAGGSLRLSCAASGYTFGYYTMGWYRQAPGKERELVASIDSGGGTNYADSVKGRFTISRDNAKNTVYLQMNSLKPEDTEVYYCAAEYPLYWVDDFESGWRYYYWGQGTQVTVSS` displays polyreactivity (PSR sort gate) of low polyreactivity

Lab note: measured polyreactivity (PSR sort gate) of `QVQLVESGGGLVQAGGSLRLSCAASGRIFPDNTMGGYRQAPGKERELVAVITYSGGSTYYADSVKGRFTISRDNAKNTVYLKMNSLKPEDTAVYYCAARDYYIWFAEVYYWGQGTQVSVSS` was low polyreactivity

The sequence `QVQLVESGGGLVQAGGSLPLSCAASGSIFSKYTMGWYRQAPGKERELDAAISRAGSTYYADSVKGRFTISRDNAKNSVYLQMNSLKPEDTAVYYCNARYRGVYPLIGIRRDYYYWGQGTQVTVSS` showed polyreactivity (PSR sort gate) equal to high polyreactivity

---

experiment: yeast display, Sf9 membrane polyspecificity reagent, FACS + sequencing; frameworks hold sequencing errors
quantity_name: polyreactivity (PSR sort gate)

QVQLVESGGGLVQAGGSLRLSCAASGFTFHKNAMGWYRQAPGKERELVAAITNRGGSTYYADSVKGRFTISRDNAKNTVYLQMNSLKPEDTAVYYCAAELRPYITYVGPRKKFYYWGQGTQVTVSS
high polyreactivity
QVQLVESGGGLVLAGGSLRLSCAASGRTFRSYAMGWYRQAPGKERELVAAISSGGSTNYADSVKGRFTISRDNAKNTVYLQMNSLKPEDTAVYYCAATFQLYRFIGYEYWGQGTQVTVSS
high polyreactivity
QVQLVESGGGLVQAGGSLRLSCAASGRTFKLYAMGWYRQAPGKERELVAAISRSSGSTYYADSVKGRFTISRDNAKNTDYLQMNSLKPEDTAVYYCAARKNRAYGYWGQGTQVTVSS
high polyreactivity
QVQLEESGGGLFQAGGSLRLICAASGRICDVNAMGWYRQAPGKERELVAAISWSGGITYYADSVKGRFTISRDNAKNTVYLQMNSLKPEDTAVYYCAADKYQGYTFYQGYPGGGGYWGQGTQVTVSS
low polyreactivity

Memo: `QVQLVESGGGLVQAGGSLRLSCAASGFTISYYAMGWYRQAPWKEGELVAAIRKSGATTDYADSVKGRFTISRDNAKNTVYLQMNCMKPEDTAVYYCNAKNDQRSLGFDFWRQGTQVTVSS` , reported polyreactivity (PSR sort gate): high polyreactivity

Reported polyreactivity (PSR sort gate) for `QVQLVESGGGLVQAGGSLRLSCAASGSIFWSNAMGWYRQAPGKERELVAASSSGGSTYADSVKGRFTISRDTAKNTVYLQMNSLKPEDNAVYDCNARDYSVGRNDYWGQGTQVTVSS` was low polyreactivity

Entry under test: `QVQLVESGGGLVQAGGSLRLSCAASGRNFGYYTMGWYRQAPGKERELVAAITSSGGRTYYADSVKGRFTISRDNAKNTVYLQMNSLIPEVTAVYYCNKVTYGYAYWRYDGYYYWGQGTQVTVSS` . Its polyreactivity (PSR sort gate) was low polyreactivity

For this sequence ( `QVQLVQSGGGLVQAGGSLRLSCAASGRIFKYNAMGWYRQAPGKERDLVAVITSGGSTYYADSVKGRFTISRDNAKNTFYLQMNSQKPEDTAVYSCAKKYYKVHKFDYWGQGTQVTVSS` ), measured polyreactivity (PSR sort gate) is low polyreactivity

Short answer for `QVQLVESGGGLVQAGGSLRLSCAASGSIFSTYVMGWYRPAPGKERELVAAIRWRATSTFYADSVKGRFTISRDNAKNTVYLQMNSLKPEDTAVYYCNRYHRTSWRAKYDYWGQGTQVTVSS` : polyreactivity (PSR sort gate) was high polyreactivity

`QVQLVESGGGLVQAGASLSLSCAASGRTFGGNAMGWYRQAPGKEREFVAAISRSGTSTYYADSVKGRFTISRDNAKNTVYFQMNSLKPEATAVYYCAALNYLKFAHKYDYWGQGTQVTVSS` has a reported polyreactivity (PSR sort gate) of low polyreactivity

Recorded polyreactivity (PSR sort gate) (sequence `QVQLVESGGGLVQARGSLRLSCAASGFIFASNAMGWYRQAPGKERELVAAITKSGGRTYYADSVKARFTISRDTAKNTVYLQMNSLKPVDTAVYYCAAKVRVVHRPYDHWGQGTQVTVSS` ): high polyreactivity
